Give KI (inactivation) for every item shown.
molecular target: GST-LSD1 (Homo sapiens, UniProt O60341); conditions: GST-LSD1, peroxidase-coupled assay, extrapolated to zero substrate
One number for each entry, in nM.

Example compounds with recorded KI (inactivation):
>  <compound>
COc1ccc(CCCC(=O)Nc2ccc(CCNN)cc2)cc1.O=S(=O)(O)O [Compound 12h, sulfate]

>  <result>
207

$$$$
>  <compound>
CS(=O)(=O)Oc1ccccc1CCC(=O)Nc1ccc(CCNN)cc1.O=C(O)C(=O)O [Compound 12j, methanesulfonate oxalate]

>  <result>
204

$$$$
>  <compound>
CS(=O)(=O)Oc1cccc(CCC(=O)Nc2ccc(CCNN)cc2)c1.O=C(O)C(=O)O [Compound 12k, methanesulfonate oxalate]

>  <result>
223

$$$$

Next:
Qu. Any idea what its KI (inactivation) is? The compound is NNCCCc1ccc(OCc2ccccc2)cc1 [Compound 14, {3-[4-(Benxyloxy)phenyl]propyl}hydrazine]
Ans. 900

The values you see were collected from patent US20170029366A1.
